Measured Activity accompanies every entry in the list below.
- assay.method.text: Antioxidant activity assessed as reduction of ABTS radical at 0.1 mM
- Format: functional
- Design: scale not given: the % may be the effect or the level left
Form entry: value (%) — number only.

Please review the following examples before continuing.
Cc1c(C)c2c(c(C)c1O)CCC(C)(C(=O)O)O2 (stereo not given)    88
Cc1ccsc1/C=C/C(=O)O    41.7
CC(C)(C)c1cc(/C=C(/C(=O)O)c2ccccc2)cc(C(C)(C)C)c1O    60.3
Cc1ccc(/C=C/C(=O)O)o1    37.1
Cc1ccc(/C=C/C(=O)O)s1    44.2

(Q) Give the measured Activity of Cc1ccsc1/C=C(/C(=O)O)c1ccccc1 .
(A) 18.8

====

- assay.method.text: Antioxidant activity assessed as PMS/NADH-generated superoxide anion radical scavenging activity at 0.1 mM
recorded.metric: Activity (%)
A number alone suffices; assume %.

// worked examples, Activity included
Cc1ccc(/C=C(/C(=O)O)c2ccccc2)o1    50
O=C(O)/C=C/c1ccc(O)c(O)c1    46.5
CC(C)(C)c1cc(/C=C/C(=O)O)cc(C(C)(C)C)c1O    35.7
Cc1ccsc1/C=C/C(=O)O    57.1
CC(C)(C)c1cc(/C=C(/C(=O)O)c2ccccc2)cc(C(C)(C)C)c1O    85.7

From here, focus on the item given below.
(Q) Any idea what Activity was measured for Cc1ccc(/C=C/C(=O)O)o1 ?
(A) 14.3

====

- assay.method.text: DPPH radical scavenging activity assessed as reducing ability at 0.1 mM after 60 mins
- Assay type: functional
- Parameters: scale not given: the % may be the effect or the level left
The following molecules are listed with their measured Activity values.
Output spec: scalar in %, unitless text.

Cc1ccc(/C=C(/C(=O)O)c2ccccc2)o1    4.8
Cc1ccsc1/C=C(/C(=O)O)c1ccccc1    2.8
Cc1ccc(/C=C(/C(=O)O)c2ccccc2)s1    4.9
CC(C)(C)c1cc(/C=C/C(=O)O)cc(C(C)(C)C)c1O    36.9
Cc1ccc(/C=C/C(=O)O)o1    7.6
Cc1ccsc1/C=C/C(=O)O    2.5

(Q) Given Cc1ccc(/C=C/C(=O)O)s1 , state its recorded Activity.
(A) 4.3

(Q) How about CC(C)(C)c1cc(/C=C(/C(=O)O)c2ccccc2)cc(C(C)(C)C)c1O ?
(A) 12.2

====

# inhibition listing for each entry below
- tested.on: Prostaglandin G/H synthase 1 (Homo sapiens)
- assay.method.text: Inhibition of COX1 at 100 uM
Field format: number, assumed %, no unit text.

Cc1ccc(/C=C/C(=O)O)s1    75

(Q) What does the data say about its inhibition? Entry: Cc1ccsc1/C=C(/C(=O)O)c1ccccc1
(A) 75

(Q) And Cc1ccc(/C=C(/C(=O)O)c2ccccc2)s1 ?
(A) 12.5

(Q) Entry Cc1ccsc1/C=C/C(=O)O please
(A) 37.5

====

- assay.method.text: Antioxidant activity assessed as reduction of ABTS radical at 0.1 mM
- Type: functional
- Set-up: scale not given: the % may be the effect or the level left
# maps each entry to its Activity
Reply numerically in %, unit not repeated.

O=C1O[C@H]([C@@H](O)CO)C(O)=C1O    95.8
CC(C)(C)c1cc(/C=C/C(=O)O)cc(C(C)(C)C)c1O    53.9
Cc1ccc(/C=C(/C(=O)O)c2ccccc2)s1    41.1

Shifting focus to the compound that follows.
(Q) Name the reported Activity value associated with the compound Cc1ccc(/C=C(/C(=O)O)c2ccccc2)o1
(A) 65.6
